- Condition Notes: 293.15 K; 101.33 kPa; Liquid; Pycnometric method
True means recorded mass density is 1000 kg/m3 or above; False means it is below 1000 kg/m3.

Here are 6 molecules together with their reported answers.
# bool: mass density of Cn1cc[n+](CCO)c1.N#C[N-]C#N [3-(2-hydroxyethyl)-1-methyl-1H-imidazol-3-ium dicyanoazanide] >= 1000 kg/m3
True

Quick check, mass density >= 1000 kg/m3? CCCCCCCC[n+]1ccn(C)c1.F[B-](F)(F)F [1-methyl-3-octylimidazolium tetrafluoroborate]
True

Is the recorded value of mass density equal to or greater than 1000 kg/m3 for this molecule? CCOS(=O)(=O)[O-].CCn1cc[n+](C)c1 [1-ethyl-3-methylimidazolium ethyl sulfate]
True

# check: mass density of CCCCn1cc[n+](C)c1C.O=S(=O)([N-]S(=O)(=O)C(F)(F)F)C(F)(F)F is greater than or equal to 1000 kg/m3
True

Check the entry CCCCn1cc[n+](C)c1.N#CN=C=[N-] [1-butyl-3-methylimidazolium dicyanamide] : does mass density equal or exceed 1000 kg/m3?
True

Reported mass density reaches at least 1000 kg/m3 for CCCCCCCCO ?
False

More entries:
Tell me whether mass density is at least 1000 kg/m3 here: CCCC[n+]1ccn(C)c1.O=S(=O)([N-]S(=O)(=O)C(F)(F)F)C(F)(F)F
True

----------
- Condition Notes: 293.15 K; 101.33 kPa; Liquid; Pycnometric method
Experimental Readout: mass density (kg/m3)
Answer with a number only, understood to be in kg/m3.

# count of solved cases: 3
# return recorded mass density for input COCCn1cc[n+](C)c1.F[B-](F)(F)F [1-(2-methoxyethyl)-3-methyl-imidazolium tetrafluoroborate]
1306

Tell me measured mass density for CCCCCCCCCCn1cc[n+](C)c1.F[B-](F)(F)F [1-decyl-3-methylimidazolium tetrafluoroborate] please.
1076

Let me know recorded mass density for CCCCn1cc[n+](C)c1.F[B-](F)(F)F [1-butyl-3-methylimidazolium tetrafluoroborate] , thanks.
1212

Here's the next entry for you.
Quickly give me recorded mass density for CCCCCCCCn1cc[n+](C)c1.O=S(=O)([N-]S(=O)(=O)C(F)(F)F)C(F)(F)F
1340

----------
- Condition Notes: 293.15 K, Pendant drop shape
Item-by-item account of surface tension liquid-gas
Response body: numeric value in mN/m, unit text excluded.

Some solved cases for reference:
Give a short answer stating reported surface tension liquid-gas for CCCCCCCC[N+](C)(CCCCCCCC)CCCCCCCC.N#C[N-]C#N [N,N,N-trioctyl-N-methylammonium dicyanamide] .
28.8

Retrieve surface tension liquid-gas measured for COCCn1cc[n+](C)c1.F[B-](F)(F)F [1-(2-methoxyethyl)-3-methyl-imidazolium tetrafluoroborate] and print it.
35.31

# next compound below
Entry CCCCCCCCCCCCCC[P+](CCCCCC)(CCCCCC)CCCCCC.Cc1ccc(S(=O)(=O)[O-])cc1 [tetradecyl(trihexyl)phosphonium tosylate] needs its surface tension liquid-gas filled in; supply it.
23.2

----------
- Condition Notes: 293.15 K, Pendant drop shape
Doc: threshold 30 mN/m (exclusive). Items with surface tension liquid-gas beneath it return Satisfied; others return Not satisfied.

surface tension liquid-gas strictly < 30 mN/m for this compound? CCOS(=O)(=O)[O-].CCn1cc[n+](C)c1 [1-ethyl-3-methylimidazolium ethyl sulfate]
Not satisfied

Is surface tension liquid-gas of CCCCCCCC[N+](C)(CCCCCCCC)CCCCCCCC.O=S(=O)([N-]S(=O)(=O)C(F)(F)F)C(F)(F)F strictly below 30 mN/m?
Satisfied

Say whether its surface tension liquid-gas is strictly beneath 30 mN/m. Entry: CCCCCCCCCCCCCC[P+](CCCCCC)(CCCCCC)CCCCCC.N#C[N-]C#N [tetradecyl(trihexyl)phosphonium dicyanamide]
Not satisfied

More entries:
Below 30 mN/m on surface tension liquid-gas? Entry CCCCCCN(CCCCCC)C(N(C)C)=[N+](CCCCCC)CCCCCC.[Cl-]
Satisfied

I'd appreciate it if you could check whether CCCCn1cc[n+](C)c1.N#CN=C=[N-] [1-butyl-3-methylimidazolium dicyanamide] has surface tension liquid-gas smaller than 30 mN/m.
Not satisfied

Consider the compound CCCCn1cc[n+](C)c1C.O=S(=O)([N-]S(=O)(=O)C(F)(F)F)C(F)(F)F . Is its surface tension liquid-gas strictly less than 30 mN/m?
Satisfied

----------
- Condition Notes: 293.15 K; 101 kPa; Liquid mixture 1; pendant drop method
Experimental Readout: interfacial tension (mN/m)
Just the number in mN/m, nothing appended.

Item CCCCn1cc[n+](C)c1C.O=S(=O)([N-]S(=O)(=O)C(F)(F)F)C(F)(F)F + O : provide interfacial tension
17.04

----------
- Condition Notes: 293.15 K, Pendant drop shape
Numbers after ± are expanded uncertainties.
Below, each of the molecules is paired with its reported surface tension liquid-gas value.
Param answer (str): number followed by unit.

A selection of reference data follows.
State, in one line, measured surface tension liquid-gas of CCCCCCCC[n+]1ccn(C)c1.[Cl-] [1-methyl-3-octylimidazolium chloride]
26.2 ± 0.57 mN/m

Return reported surface tension liquid-gas. Input molecule: CCCCCCCCCCn1cc[n+](C)c1.N#C[N-]C#N [1-decyl-3-methylimidazolium dicyanamide]
31.15 ± 0.57 mN/m

Please report surface tension liquid-gas for the following molecule: CCCCCCCCCCn1cc[n+](C)c1.F[B-](F)(F)F [1-decyl-3-methylimidazolium tetrafluoroborate]
23.65 ± 0.48 mN/m

Let us move to another entry and its surface tension liquid-gas.
Supply recorded surface tension liquid-gas for CCCCCCCC[n+]1ccn(C)c1.F[B-](F)(F)F [1-methyl-3-octylimidazolium tetrafluoroborate] here.
33.22 ± 0.6 mN/m

----------
- Condition Notes: 293.15 K; 101.33 kPa; Liquid; Pycnometric method
Experimental Readout: mass density (kg/m3)
Provide only the numeric value, understood in kg/m3.

# example entries with known answers
Tell me mass density reported for CCCCCCCCCCn1cc[n+](C)c1.N#C[N-]C#N [1-decyl-3-methylimidazolium dicyanamide]
1003

Return reported mass density. Input compound: CCCCCCCC[n+]1ccn(C)c1.[Cl-] [1-methyl-3-octylimidazolium chloride]
971

Specify mass density for ClCCl and stop.
1327

For the compound CCCCCCCCn1cc[n+](C)c1.N#C[N-]C#N [3-methyl-1-octylimidazolium dicyanamide] , give its reported mass density.
1013

Continuing:
Supply mass density value. Item: CCCCCCCC[N+](C)(CCCCCCCC)CCCCCCCC.[Cl-] [N-methyl-N,N-dioctyl-1-octanaminium chloride]
891

----------
Recorded measurements of interfacial tension, one per entry
- Condition Notes: 293.15 K; 101 kPa; Liquid mixture 1; pendant drop method
Unit mN/m implied. Number only.

Give the reported interfacial tension for this molecule. CCCCCCCCCCCCCC[P+](CCCCCC)(CCCCCC)CCCCCC.[Cl-] [trihexyl(tetradecyl)phosphonium chloride] + O
6.11

Note interfacial tension for the molecule shown: CCCCCCCCO [octan-1-ol] + O
8.3

Specify reported interfacial tension for the molecule shown: CCCCCCCC[N+](C)(CCCCCCCC)CCCCCCCC.[Cl-] [N-methyl-N,N-dioctyl-1-octanaminium chloride] + O
3.66

More entries:
Fill in interfacial tension for record CCCC[n+]1ccn(C)c1.O=S(=O)([N-]S(=O)(=O)C(F)(F)F)C(F)(F)F + O
15.15

Return interfacial tension for the following molecule: CCCCCCCCn1cc[n+](C)c1.O=S(=O)([N-]S(=O)(=O)C(F)(F)F)C(F)(F)F + O
22.81

----------
Quick reference for mass density among some compounds
- Condition Notes: 293.15 K; 101.33 kPa; Liquid; Pycnometric method
Write the value in kg/m3 as a bare number.

Here are 2 compounds together with their reported answers.
In one line, give reported mass density of the entry O .
1013

Report mass density, nothing else, for this compound: OCCO
1121

Now look at this entry.
Please supply the value of reported mass density for the item CCCCCCCCCCCCCC[P+](CCCCCC)(CCCCCC)CCCCCC.[Cl-] [trihexyl(tetradecyl)phosphonium chloride]
918
